The origin of these recorded values is PubChem BioAssay (NCI).

tested on: MOLT-4 leukemia; assay: NCI-60 one-dose screen, 48 h (100 = growth as untreated, 0 = no growth, -100 = all killed); details: 10 µM unless noted
This is part of a sample that, as a whole, favours compounds with a hit. Of some 83,000 tested, about 20% had one in any assay.
outcome measure: growth (%)

compound	assay target	unit of measure	test result
O=c1ccc2nc(C(F)(F)F)nn(-c3ccccc3)c-2c1	MOLT-4 leukemia	%	-20.5
C/C(=N\Nc1nc(C)cs1)c1cc2ccccc2o1	MOLT-4 leukemia	%	85.9
COc1cc(C#Cc2ccc(=O)oc2C#Cc2ccccc2)cc(OC)c1OC	MOLT-4 leukemia	%	33.4
COC(=O)C1=C(C)NC(C)=C(C(=O)OCC(C)C)C1c1ccccc1[N+](=O)[O-] (stereo unspecified)	MOLT-4 leukemia	%	43.6
CCC(C)Nc1ccc(NC(C)CC)cc1 (stereo unspecified)	MOLT-4 leukemia	%	59.1
Cc1ccc(C)n1/C=C/n1c(C)ccc1C	MOLT-4 leukemia	%	117
